Just for reference, the supplement of paper PMC11732987 is where these values come from.

- system: FAM105A (UniProt Q9NUU6)
- Sequence (Q9NUU6 whole entry, the tested form may be a part): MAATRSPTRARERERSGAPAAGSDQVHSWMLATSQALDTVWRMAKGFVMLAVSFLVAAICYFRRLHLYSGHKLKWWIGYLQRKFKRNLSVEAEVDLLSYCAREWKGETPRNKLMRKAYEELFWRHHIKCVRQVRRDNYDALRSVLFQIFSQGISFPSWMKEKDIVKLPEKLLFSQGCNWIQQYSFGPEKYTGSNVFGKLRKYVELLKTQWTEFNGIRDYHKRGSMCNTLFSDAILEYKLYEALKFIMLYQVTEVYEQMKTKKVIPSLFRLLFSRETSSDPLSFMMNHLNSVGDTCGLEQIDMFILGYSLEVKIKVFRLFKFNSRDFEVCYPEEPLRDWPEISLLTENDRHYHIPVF
- experimental_details: log2 ratio of Biotin-Ahx-Ub-VS probe labelling (fragment/DMSO); higher = less target engagement (more negative = stronger competition), active = hit call of the paper (q ≤ 0.05, log2 ratio ≤ -1)
- setup_conditions: compound concentration: 200 uM; treatment time: 3 h
Outcome label depends on log2 ratio of Biotin-Ahx-Ub-VS probe labelling relative to 0.02: at/above gives Criterion met, below gives Criterion not met.

molecule: O=C(CCl)Nc1cc2c(cc1Cl)OCCO2
category_label: Criterion met
//
molecule: O=C(CCl)NCc1ccc(N2CCOCC2)nc1
category_label: Criterion met

Reported log2 ratio of Biotin-Ahx-Ub-VS probe labelling at or above 0.02? O=C(CCl)Nc1nnc(CC(F)(F)F)o1 Criterion not met

Given N#Cc1ccc(CNC(=O)CCl)cc1 , state whether its log2 ratio of Biotin-Ahx-Ub-VS probe labelling is at least 0.02. Criterion not met

Determine whether measured log2 ratio of Biotin-Ahx-Ub-VS probe labelling meets or exceeds 0.02 for Cc1ccc(-c2nnc(C)[nH]2)c(NC(=O)CCl)c1 Criterion not met

Is the recorded value of log2 ratio of Biotin-Ahx-Ub-VS probe labelling equal to or greater than 0.02 for this molecule? CC(NC(=O)CCl)c1cccc2ccccc12 (centres undefined) Criterion not met

Please tell me: is the molecule COCC[C@@H](NC(=O)CCl)c1ccccc1 at or over 0.02 in terms of log2 ratio of Biotin-Ahx-Ub-VS probe labelling? Criterion met

Please check the record O=C(CCl)NCc1cccc(N2CCCC2=O)c1 and state if its log2 ratio of Biotin-Ahx-Ub-VS probe labelling is at or above 0.02. Criterion not met
